# Test system: NCI-H69 (Small Cell Lung Carcinoma)
# measurementDescription: Bliss excess, mean over the matrix (fraction); higher = more synergy
endpoint: Bliss excess
Numbers only.

compound	readoutValue
CN(CCO)CC[C@H](CSc1ccccc1)Nc1ccc(S(=O)(=O)NC(=O)c2ccc(N3CCC([C@@H](O)c4ccccc4-c4ccc(Cl)cc4)CC3)cc2)cc1S(=O)(=O)C(F)(F)F [AZD4320] + C[C@@H]1COCCN1C2=NC(=NC(=C2)C3(CC3)[S@](=N)(=O)C)C4=C5C=CNC5=NC=C4 [AZD6738] (first compound max 1 µM, 7x7, partner max 10 µM)	-0.0446

Next up:
# value lookup — system NCI-H69 (Small Cell Lung Carcinoma), readout Bliss excess, item COc1cccc2c1C(=O)c1c(O)c3c(c(O)c1C2=O)C[C@@](O)(C(=O)CO)C[C@@H]3O[C@H]1C[C@H](N)[C@H](O)[C@H](C)O1 [Doxorubicin] + Cc1cc2ncnn2cc1Nc1ncc2c(n1)n(C1CCOCC1)c(=O)n2C [AZD7648] (first compound max 1 µM, 7x7, partner max 10 µM) 0.0064

====

Give measured Bliss excess for each item. Keep answers brief.
# Tested on: HDLM-2 (Hodgkin's Lymphoma)
# measurementDescription: Bliss excess, mean over the matrix (fraction); higher = more synergy
Give bare numbers.

Example results:
molecule	assaySystem	Bliss excess
CN(CCO)CC[C@H](CSc1ccccc1)Nc1ccc(S(=O)(=O)NC(=O)c2ccc(N3CCC([C@@H](O)c4ccccc4-c4ccc(Cl)cc4)CC3)cc2)cc1S(=O)(=O)C(F)(F)F [AZD4320] + Nc1ccn([C@@H]2O[C@H](CO)[C@@H](O)C2(F)F)c(=O)n1 [Gemcitabine] (first compound max 1 µM, 7x7, partner max 0.3 µM)	HDLM-2 (Hodgkin's Lymphoma)	0.0204
CC1(C)CCC(CN2CCN(c3ccc(C(=O)NS(=O)(=O)c4ccc(NCC5CCOCC5)c([N+](=O)[O-])c4)c(Oc4cnc5[nH]ccc5c4)c3)CC2)=C(c2ccc(Cl)cc2)C1 [Venetoclax] + C[C@@H]1COCCN1C2=NC(=NC(=C2)C3(CC3)[S@](=N)(=O)C)C4=C5C=CNC5=NC=C4 [AZD6738] (first compound max 1 µM, 7x7, partner max 10 µM)	HDLM-2 (Hodgkin's Lymphoma)	0.0068

Next up:
Request the reported Bliss excess associated with C[C@@H](Nc1cc(F)cc(F)c1)c1cc(C(=O)N(C)C)cc2c(=O)cc(N3CCOCC3)oc12 [AZD8186] + C1CN(CCC1(C(=O)N[C@@H](CCO)C2=CC=C(C=C2)Cl)N)C3=NC=NC4=C3C=CN4 [AZD5363] (first compound max 10 µM, 7x7, partner max 10 µM) -0.0194

====

# Test system: 639-V (Bladder Carcinoma)
# measurementDescription: combination Emax (second highest fraction inhibited in the dose matrix, 72 h); higher = more inhibition; extreme values may be limits of the assay
Give measured combination Emax for each item. Keep answers brief.
Give bare numbers.

Example results:
compound	endpoint	readoutValue
Cc1c2c(nn1C)CSCc1cc(n(C)n1)CSc1cc(c3ccccc3c1)OCCCc1c(C(=O)O)n(C)c3c-2c(Cl)ccc13 [AZD5991] + C[C@@H]1COCCN1C2=NC(=NC(=C2)C3(CC3)[S@](=N)(=O)C)C4=C5C=CNC5=NC=C4 [AZD6738] (first compound max 1 µM, 7x7, partner max 10 µM)	combination Emax	0.452
NC1(C(=O)N[C@@H](CCO)c2ccc(Cl)cc2)CCN(c2ncnc3[nH]ccc23)CC1 [Capivasertib] + CC(C)n1c(=O)n(C)c2cnc3cc(F)c(-c4ccc(OCCCN5CCCCC5)nc4)cc3c21 [AZD1390] (first compound max 10 µM, 7x7, partner max 0.3 µM)	combination Emax	0.252
CCc1c2c(nc3ccc(O)cc13)-c1cc3c(c(=O)n1C2)COC(=O)[C@]3(O)CC [SN-38] + O=C(c1cc(Cc2n[nH]c(=O)c3ccccc23)ccc1F)N1CCN(C(=O)C2CC2)CC1 [Olaparib] (first compound max 0.3 µM, 7x7, partner max 10 µM)	combination Emax	1

Would you mind listing combination Emax for each of the following compounds?
1. C=CCn1c(=O)c2cnc(Nc3ccc(N4CCN(C)CC4)cc3)nc2n1-c1cccc(C(C)(C)O)n1 [AZD1775] + O=C(c1cc(Cc2n[nH]c(=O)c3ccccc23)ccc1F)N1CCN(C(=O)C2CC2)CC1 [Olaparib] (first compound max 1 µM, partner max 10 µM)
2. CC1(C)CCC(CN2CCN(c3ccc(C(=O)NS(=O)(=O)c4ccc(NCC5CCOCC5)c([N+](=O)[O-])c4)c(Oc4cnc5[nH]ccc5c4)c3)CC2)=C(c2ccc(Cl)cc2)C1 [Venetoclax] + C[C@@H](Nc1cc(F)cc(F)c1)c1cc(C(=O)N(C)C)cc2c(=O)cc(N3CCOCC3)oc12 [AZD8186] (first compound max 1 µM, 7x7, partner max 3 µM)
3. COc1nnc2ccc(N3CCC(c4ccc(OCCN5CCN(C)C(=O)[C@H]5C)cc4)CC3)nn12 [AZD5153] + CCN(CCO)CCCOc1ccc2c(Nc3cc(CC(=O)Nc4cccc(F)c4)[nH]n3)ncnc2c1 [AZD2811] (first compound max 1 µM, 7x7, partner max 1 µM)
4. NC1(C(=O)N[C@@H](CCO)c2ccc(Cl)cc2)CCN(c2ncnc3[nH]ccc23)CC1 [Capivasertib] + C[C@@H]1COCCN1C2=NC(=NC(=C2)C3(CC3)[S@](=N)(=O)C)C4=C5C=CNC5=NC=C4 [AZD6738] (first compound max 10 µM, 7x7, partner max 10 µM)

0.333
0.321
0.681
0.496
